Tested on: Trypanosoma cruzi
Assay: Trypanosoma cruzi phosphomannomutase and mannose-1-phosphate guanylyltransferase assay
Format: functional
Set-up: scale not given: direction of the effect not stated beside the values
Conditions: 10 µM
The following compounds are shown together with reported Percent Effect values.
Recorded Endpoint: Percent Effect (%)

Compound	Recorded Endpoint	Unit	Reported
CCc1noc(C)c1C(=O)N1CCCC1Cn1nc(C)cc1C (configuration not stated)	Percent Effect	%	2.71
Cc1ccc(CN(C)C(=O)CN2CC(n3cccn3)C2)o1	Percent Effect	%	-1.46
CNC(=O)c1cnc(/C=C/c2cc(OC)cc(OC)c2)s1	Percent Effect	%	-6.25
CN(C)C(=O)C1CN(Cc2cscn2)CCN(S(C)(=O)=O)C1 (configuration not stated)	Percent Effect	%	1.98
NCc1cnn(-c2ccccc2C(=O)NCCCn2ccnc2)c1	Percent Effect	%	-3.16
CCn1cc(NC(=O)NCC(O)COc2cccc(F)c2)cn1 (configuration not stated)	Percent Effect	%	-7.14
O=C(NCc1ccco1)c1nn(C2CCS(=O)(=O)C2)c2c1CCCC2 (configuration not stated)	Percent Effect	%	3.02
CN(CC(=O)NCc1ccccn1)CC1CCCN1c1cccnn1 (configuration not stated)	Percent Effect	%	-2.15
Cc1ccc(-c2nc(CN3CCc4nn(C)c(=O)cc4C3)no2)cc1	Percent Effect	%	5.75
O=C([C@H]1COC[C@H]2CN(C3CCCC3)C[C@H]21)N1CCCCO1	Percent Effect	%	-0.579
CCCNC(=O)c1cc2c([nH]c1=O)CC(c1cccs1)CC2=O (configuration not stated)	Percent Effect	%	3.34
Cc1ccc(C(=O)NCCCNS(C)(=O)=O)cc1-n1cccc1	Percent Effect	%	3.99
Clc1ccc(OCCN2CCN(CCn3cncn3)CC2)cc1	Percent Effect	%	8.69
CC(NC(=O)NCc1cccnc1N1CCCCC1)c1nccs1 (configuration not stated)	Percent Effect	%	6.37
CC(=O)N1CCC[C@H]1C(=O)NCCOc1cccc(Cl)c1	Percent Effect	%	4.31
CC1CCN(Cn2nc(-c3ccc(F)cc3)oc2=O)CC1	Percent Effect	%	-7.12
Cn1cc(C2CCCN2CCCc2nc(-c3cccs3)no2)cn1 (configuration not stated)	Percent Effect	%	-3.87
CCCc1n[nH]c(C2CN(C(=O)C3=COCCC3)CCO2)n1 (configuration not stated)	Percent Effect	%	2.52
CCC(O)CNC(=O)C1(N(C)Cc2ccccc2)Cc2ccccc2C1 (configuration not stated)	Percent Effect	%	-2.63
COC(=O)C(c1cc(F)ccc1F)N(C)C(=O)c1ccnc(C)n1 (configuration not stated)	Percent Effect	%	-2.77
Cc1nn(C)c(C)c1CC(=O)N1CCC(Nc2cccnn2)CC1	Percent Effect	%	9.59
COCC1CN(C(=O)C2=CCCCC2)Cc2cnn(CC3CC3)c21 (configuration not stated)	Percent Effect	%	1.48
CN(C)C[C@H]1OC[C@@H]2CCN(C(=O)c3ccco3)C[C@@H]21	Percent Effect	%	-3.23
Cc1nc(CN2C(=O)CC[C@H]3[C@@H]2CCN3C(=O)c2ccsc2)cs1	Percent Effect	%	4.2
CCc1nc(COc2ccc(OCc3cnn(C)c3)cc2)no1	Percent Effect	%	3.86
Cn1cc(NS(=O)(=O)c2ccc(OC(F)(F)F)cc2)ccc1=O	Percent Effect	%	-9.73
O=C(Cn1nc2c(cc1=O)CCCC2)N[C@@H](Cc1ccccc1)C(=O)O	Percent Effect	%	0.197
Cc1noc(C)c1CNc1cc(N2CCCC2CO)ncn1 (configuration not stated)	Percent Effect	%	1.54
O=C(c1ccc2c(c1)CCC2)N1C[C@@H](CN2CCOCC2)[C@@H](CO)C1	Percent Effect	%	-6.52
CC(c1cccnc1)N(C)Cc1csc(-c2ccccn2)n1 (configuration not stated)	Percent Effect	%	6.66
O=C(Nc1cc(F)ccc1OCC1CCCO1)N1CCCC1 (configuration not stated)	Percent Effect	%	6.55
CC(C)(C)n1cc(C(=O)N2CCCN(Cc3cccs3)CC2)cn1	Percent Effect	%	-3.57
CC(C)c1nn(C)c(N(C)C)c1CNCc1ccc2c(c1)OCO2	Percent Effect	%	-7
Cc1cc(S(=O)(=O)Nc2cccc(-n3cccc3)c2)sc1C(=O)O	Percent Effect	%	4.99
N#Cc1cn(C2CC2)c(=O)n(CC(O)c2ccc(OC(F)F)cc2)c1=O (configuration not stated)	Percent Effect	%	6.01
O=C(CCc1cscn1)NS(=O)(=O)c1ccc2c(c1)CCC2	Percent Effect	%	7.29
CCCNC(=O)NC(=O)CN(CC(C)O)c1ccccc1 (configuration not stated)	Percent Effect	%	6.95
CN(C(=O)c1cccc(C(=O)NS(C)(=O)=O)c1)c1ccccc1	Percent Effect	%	6.98
Cc1ccc(-c2nnc(CN3CCc4cnc(C)nc4C3)o2)cc1	Percent Effect	%	11.2
CCc1nc(CN(C)CC2CCN(CC(C)O)CC2)no1 (configuration not stated)	Percent Effect	%	9.46
CN(C)S(=O)(=O)c1ccc(CN2CCCC2c2ccccc2)o1 (configuration not stated)	Percent Effect	%	9.06
Cc1ccc(-c2cc(N)c(=O)n(CC(=O)NCC3CC3)n2)s1	Percent Effect	%	-0.395
COc1ccc(C2=CCN(C(=O)CN(C)CC(C)C#N)CC2)cc1 (configuration not stated)	Percent Effect	%	10.5
O=C(CN1CC(n2cccn2)C1)NCCc1c[nH]c2ccccc12	Percent Effect	%	2.69
CN1CCOC(CN(C(=O)Cc2ccccc2F)c2nccs2)C1 (configuration not stated)	Percent Effect	%	8.82
CC(=O)N1CCC(Oc2ccc(C#N)cn2)CC1	Percent Effect	%	2.94
CC(C(=O)N1CCN(c2ccccc2Cl)CC1)n1cncn1 (configuration not stated)	Percent Effect	%	1.33
